Target: 3R Shaker K channel (Drosophila melanogaster, UniProt P08510, A359R/M356R)
Sequence (P08510 whole entry M356R/A359R): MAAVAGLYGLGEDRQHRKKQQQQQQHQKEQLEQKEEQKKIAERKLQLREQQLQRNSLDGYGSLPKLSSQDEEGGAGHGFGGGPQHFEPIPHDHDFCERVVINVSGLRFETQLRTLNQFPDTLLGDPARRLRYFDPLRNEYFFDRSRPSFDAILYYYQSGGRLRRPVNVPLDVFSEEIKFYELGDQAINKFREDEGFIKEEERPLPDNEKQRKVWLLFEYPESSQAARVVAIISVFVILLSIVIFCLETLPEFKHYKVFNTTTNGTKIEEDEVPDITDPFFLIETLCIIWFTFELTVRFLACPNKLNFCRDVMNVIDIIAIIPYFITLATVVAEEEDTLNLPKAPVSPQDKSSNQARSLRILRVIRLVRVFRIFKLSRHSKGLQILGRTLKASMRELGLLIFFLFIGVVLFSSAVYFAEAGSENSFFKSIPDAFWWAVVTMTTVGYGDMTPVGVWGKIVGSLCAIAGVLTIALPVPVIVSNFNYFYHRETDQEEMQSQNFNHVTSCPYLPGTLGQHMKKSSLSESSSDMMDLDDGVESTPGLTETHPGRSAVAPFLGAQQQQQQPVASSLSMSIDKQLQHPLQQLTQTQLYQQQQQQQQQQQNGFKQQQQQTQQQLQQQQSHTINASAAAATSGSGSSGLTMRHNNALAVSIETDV
Assay: physchem
Type: cell-based
Details: representative traces at voltage giving 10% of maximum conductance in control; 100 μM, pH 7.4
observedProperty: log10 of relative current amplitude (log10 of the value in times)
Answers are given as log10 of relative current amplitude in times.

Here is how some molecules turned out for log10 of relative current amplitude.
INSERT INTO assay_data (molecule, observedproperty, resultnumber) VALUES
  ('COC1CC2[C@](C)(C(=O)O)CCC[C@]2(C)c2ccc(C(C)C)cc21 (stereo partly drawn)', 'log10 of relative current amplitude', 0.41),
  ('CON=C1C[C@H]2[C@](C)(C(=O)O)CCC[C@]2(C)c2ccc(C(C)C)cc21', 'log10 of relative current amplitude', 0.64),
  ('CO/N=C1\CC2[C@](C)(C(=O)O)CCC[C@]2(C)c2cc(Br)c(C(C)C)cc21 (stereo partly drawn)', 'log10 of relative current amplitude', 1.03),
  ('C[C@]1(C(=O)O)CCC[C@]2(C)c3cc(O)ccc3CC[C@@H]12 [PoCA, podocarpic acid, reference compound]', 'log10 of relative current amplitude', 0.00),
  ('C=CCO/N=C1\CC2[C@](C)(C(=O)O)CCC[C@]2(C)c2ccc(C(C)C)cc21 (stereo partly drawn)', 'log10 of relative current amplitude', 0.88);

Looking up `CC(C)C1=CC2=CC[C@@H]3[C@](C)(CCC[C@@]3(C)C(=O)O)[C@H]2CC1` , I see its log10 of relative current amplitude listed as 0.34

Looking up C=C[C@@]1(C)C=C2CC[C@@H]3[C@](C)(CCC[C@@]3(C)C(=O)O)[C@H]2CC1 [PiMA, pimaric acid, reference compound] , I see its log10 of relative current amplitude listed as 0.38

Looking up C=C[C@@]1(C)CC[C@H]2C(=CC[C@@H]3[C@]2(C)CCC[C@@]3(C)C(=O)O)C1 [Iso-PiMA, isopimaric acid, reference compound] , I see its log10 of relative current amplitude listed as 0.76

Looking up CC(C)c1ccc2c(c1)C(C(=O)O)CC1[C@](C)(C(=O)O)CCC[C@]21C (stereo partly drawn) , I see its log10 of relative current amplitude listed as 0.11

---

Target: 3R Shaker K channel (Drosophila melanogaster, UniProt P08510, A359R/M356R)
Experiment: physchem
Type: cell-based
Conditions: Drosophila melanogaster; from pH dependence of G(V) shift, 100 μM
observedProperty: pKa
Returns: the value as a bare number; no unit string appended.

INSERT INTO measurements (compound, observedproperty, resultnumber) VALUES
  ('C[C@@]1(C(=O)O)CCC[C@]2(C)c3cc(Cl)c(Cl)c(Cl)c3CCC12 (stereo partly drawn) [Wu50]', 'pKa', 6.5);

Looking up CC(C)c1ccc2c(c1)CC[C@H]1[C@](C)(C(=O)O)CCC[C@]21C [DHAA, dehydroabietic acid] , I see its pKa listed as 7.3

Looking up CO/N=C1\CC2[C@](C)(C(=O)O)CCC[C@]2(C)c2cc(Br)c(C(C)C)cc21 (stereo partly drawn) [Wu32] , I see its pKa listed as 5.8

---

System: HL-1 cells
Experiment: Membrane potential and firing of spontaneously beating HL-1 cells, whole-cell current clamp
Format: cell-based
Conditions: 10 uM
observedProperty: Effects on HL-1 cells Mean (membrane potential) (mV)
// note: answer is a bare numeric in mV

Here is how some compounds turned out for Effects on HL-1 cells Mean (membrane potential).
INSERT INTO assay_data (compound, measurementtarget, resultnumber) VALUES
  ('C[C@@]1(C(=O)O)CCC[C@]2(C)c3cc(Cl)c(Cl)c(Cl)c3CCC12 (stereo partly drawn)', 'HL-1 cells', '−5.5'),
  ('CO/N=C1\CC2[C@](C)(C(=O)O)CCC[C@]2(C)c2cc(Br)c(C(C)C)cc21 (stereo partly drawn)', 'HL-1 cells', '−3.6'),
  ('CC(C)c1ccc2c(c1Br)CCC1[C@](C)(C(=O)O)CCC[C@]21C (stereo partly drawn)', 'HL-1 cells', '−4.7'),
  ('CO/N=C1\CC2[C@](C)(C(=O)O)CCC[C@]2(C)c2cc(Cl)c(C(C)C)cc21 (stereo partly drawn)', 'HL-1 cells', '−9.3'),
  ('CC(C)c1ccc2c(c1)C(C(=O)O)CC1[C@](C)(C(=O)O)CCC[C@]21C (stereo partly drawn)', 'HL-1 cells', 1.5);

# evaluate next
Looking up C=CCO/N=C1\CC2[C@](C)(C(=O)O)CCC[C@]2(C)c2ccc(C(C)C)cc21 (stereo partly drawn) , I see its Effects on HL-1 cells Mean (membrane potential) listed as −3.6

---

Entries and their G(V) shift
Biological target: 3R Shaker K channel (Drosophila melanogaster, UniProt P08510, A359R/M356R)
Experiment: physchem
Format: cell-based
Conditions: Table 1; 100 μM, pH 7.4, Xenopus oocytes

Here is how some compounds turned out for G(V) shift.
INSERT INTO measurements (compound, measurementtarget, result) VALUES
  ('CC(C)c1c(Cl)c(Cl)c2c(c1Cl)CCC1C(C)(C(=O)O)CCCC21C (centres unmarked)', '3R Shaker K channel (Drosophila melanogaster, UniProt P08510, A359R/M356R)', '−3.9 mV'),
  ('C[C@]1(C(=O)O)CCC[C@]2(C)c3ccc(Cl)cc3CCC12 (some centres unmarked)', '3R Shaker K channel (Drosophila melanogaster, UniProt P08510, A359R/M356R)', '−17.8 mV'),
  ('CC(C)c1cc2c(cc1Cl)[C@@]1(C)CCC[C@@](C)(C(=O)O)C1CC2=O (some centres unmarked)', '3R Shaker K channel (Drosophila melanogaster, UniProt P08510, A359R/M356R)', '−13.9 mV'),
  ('CC(C)c1ccc2c(c1)C(=NOCCCc1ccccc1)CC1C(C)(C(=O)O)CCCC21C (centres unmarked)', '3R Shaker K channel (Drosophila melanogaster, UniProt P08510, A359R/M356R)', '−3.0 mV');

# evaluate next
Looking up C=CCO/N=C1\CC2[C@](C)(C(=O)O)CCC[C@]2(C)c2cc(F)c(C(C)C)cc21 (some centres unmarked) , I see its G(V) shift listed as −20.2 mV

---

Target: 3R Shaker K channel (Drosophila melanogaster, UniProt P08510, A359R/M356R)
Assay: physchem
Assay type: cell-based
Conditions: Table 1; 100 μM, pH 7.4, Xenopus oocytes
observedProperty: G(V) shift (mV)
// note: answer is a bare numeric in mV

Here is how some compounds turned out for G(V) shift.
INSERT INTO measurements (compound, observedproperty, unitslabel, resultnumber) VALUES
  ('CC(C)c1c(Cl)c(Cl)c2c(c1Cl)C(=O)CC1[C@](C)(C(=O)O)CCC[C@]21C (some centres unmarked) [Wu46]', 'G(V) shift', 'mV', '−2.5'),
  ('CC(C)c1cc2c(cc1Br)C1(C)CCCC(C)(C(=O)O)C1CC2=NOCc1ccccc1 (centres unmarked) [Wu34]', 'G(V) shift', 'mV', '−6.6'),
  ('CC(C)c1cc(Cl)c2c(c1O)CC[C@H]1[C@](C)(C(=O)O)CCC[C@]21C [Wu106]', 'G(V) shift', 'mV', '−3.4'),
  ('CC(C)c1ccc2c(c1Br)CCC1[C@](C)(C(=O)O)CCC[C@]21C (some centres unmarked) [Wu26]', 'G(V) shift', 'mV', '−21.8');

Looking up CC(C)c1cc(Cl)c2c(c1)C(O)CC1[C@](C)(C(=O)O)CCC[C@]21C (some centres unmarked) [Wu101] , I see its G(V) shift listed as −9.6

Looking up C=CCO/N=C1\CC2[C@](C)(C(=O)O)CCC[C@]2(C)c2ccc(C(C)C)cc21 (some centres unmarked) [Compound K8] , I see its G(V) shift listed as −17.8

---

Entries and their G(V) shift
Target: 3R Shaker K channel (Drosophila melanogaster, UniProt P08510, A359R/M356R)
Assay: physchem
Type: cell-based
Details: Table 1; 100 μM, pH 7.4, Xenopus oocytes
// note: answer is a bare numeric in mV

Here is how some compounds turned out for G(V) shift.
INSERT INTO measurements (compound, measurementtarget, resultnumber) VALUES
  ('CC(C)c1cc(Cl)c2c(c1Cl)CC[C@H]1[C@](C)(C(=O)O)CCC[C@]21C', '3R Shaker K channel (Drosophila melanogaster, UniProt P08510, A359R/M356R)', '−14.7'),
  ('CC(C)c1cc2c(cc1C1CC1)[C@@]1(C)CCC[C@@](C)(C(=O)O)C1CC2 (stereo partly shown)', '3R Shaker K channel (Drosophila melanogaster, UniProt P08510, A359R/M356R)', '−8.2'),
  ('CO/N=C1\C[C@H]2[C@](C)(C(=O)O)CCC[C@]2(C)c2ccc(C(C)C)c(I)c21', '3R Shaker K channel (Drosophila melanogaster, UniProt P08510, A359R/M356R)', '−19.2');

Looking up CC(C)c1cc2c(cc1I)[C@@]1(C)CCC[C@@](C)(C(=O)O)C1C/C2=N\O (stereo partly shown) , I see its G(V) shift listed as −21.0
